system: M19-MEL; experiment: NCI tumour cell line growth inhibition, 48 h
Calls of active or inactive are those of the source. Rule as the data show it: active = GI50 up to about 1.1 µM and inactive = higher.
Catalogue of GI50 readings, one per entry.

{"columns": ["molecule", "measurementTarget", "outcomeMeasure", "experimentalValue"],
 "data": [
  ["Cc1c(Cl)ccc2c1NC(=O)C2(O)CC(=O)c1ccc(Cl)cc1Cl (centres undefined)", "M19-MEL", "GI50", "> 50 µM (inactive)"],
  ["CCN(c1ccc(Br)cc1)c1c(Br)c(=O)nc2ccccn12", "M19-MEL", "GI50", "> 100 µM (inactive)"],
  ["CCc1cccc(C)c1NC(=O)C1=C(C)NC(C)=C(C(=O)Nc2c(C)cccc2CC)C1c1ccc2c(c1)OCO2", "M19-MEL", "GI50", "21.4 µM (inactive)"]
]}

Now take the following molecule into account.
Request - read-out GI50 | tested on M19-MEL | molecule CC[C@@H]1NC(C(=O)OC)Cc2c1[nH]c1ccccc21 (some centres undefined) > 100 µM (inactive)
